test system: Plasmodium berghei; experiment: Luciferase/luciferin-expressing antifolate-resistant parasites were used to infect a culture of HepG2 cells that were pre-incubated with compounds. Infected hepatocytes emit light due to the luciferase reaction. Assay results are presented as the percent inhibition of light emission compared to control. […]; assay type: functional; conditions: sporozoite, HEPG2TOX_HILL_SLOPE 13.7, HEPG2TOX_R_SQUARED 0.915, PBLUC_HILL_SLOPE 1.27, PBLUC_R_SQUARED 0.698, read-out: LUCIFERASE INFECTION ASSAY - IC50
RECORDED ENDPOINT: IC50 (µM)
Numeric only. Scale: µM

Value of IC50 reported for the compound O=C(CN1CCN(c2ccc(C(F)(F)F)cn2)CC1)N1CCC(c2nc3ccccc3s2)CC1 is 3.43

###

test system: Plasmodium berghei; assay: Luciferase/luciferin-expressing antifolate-resistant parasites were used to infect a culture of HepG2 cells that were pre-incubated with compounds. Infected hepatocytes emit light due to the luciferase reaction. Assay results are presented as the percent inhibition of light emission compared to control. […]; format: functional; details: sporozoite, PBLUC_HILL_SLOPE 4.93, PBLUC_R_SQUARED 0.291, read-out: LUCIFERASE INFECTION ASSAY - IC50
RECORDED ENDPOINT: pIC50
Please express pIC50 as -log10 of the molar concentration.

Record CC(C)OC(=O)c1c(NC(=O)CSc2nnc(N)[nH]2)sc2c1CCCC2 has Plasmodium berghei pIC50 equal to 5.11

###

Recorded measurements of IC90, one per entry
tested on: Plasmodium berghei; assay: Luciferase/luciferin-expressing antifolate-resistant parasites were used to infect a culture of HepG2 cells that were pre-incubated with compounds. Infected hepatocytes emit light due to the luciferase reaction. Assay results are presented as the percent inhibition of light emission compared to control. […]; type: functional; conditions: sporozoite, read-out: LUCIFERASE INFECTION ASSAY - IC90
Numeric only. Scale: µM

Worked cases, IC90 given:
{"MOLECULE": "CN(C)c1ccc(C(c2ccc(OC(F)(F)F)cc2)c2ccc(N(C)C)cc2)cc1", "TESTED ON": "Plasmodium berghei", "QUANTITY UNIT": "µM", "IC90": 3.56}
{"MOLECULE": "N#C/C(=N\\Nc1ccc(C(F)(F)F)cc1)S(=O)(=O)c1cccs1", "TESTED ON": "Plasmodium berghei", "QUANTITY UNIT": "µM", "IC90": 8.89}
{"MOLECULE": "Cc1cccc(NC2=C(Cl)C(=O)c3ccccc3C2=O)c1", "TESTED ON": "Plasmodium berghei", "QUANTITY UNIT": "µM", "IC90": 1.4}
{"MOLECULE": "COc1cc2nc(-c3ccccc3)nc(N3CCN(CCN4CCCC4)CC3)c2cc1OC", "TESTED ON": "Plasmodium berghei", "QUANTITY UNIT": "µM", "IC90": 7.65}

We next turn to a different compound, shown below.
Value of IC90 reported for the compound CN(C)CCCOc1ccc(-c2cn3c(-c4ccc5ncccc5c4)cnc3cn2)cn1 is 7.35

###

test system: Plasmodium berghei; assay: Luciferase/luciferin-expressing antifolate-resistant parasites were used to infect a culture of HepG2 cells that were pre-incubated with compounds. Infected hepatocytes emit light due to the luciferase reaction. Assay results are presented as the percent inhibition of light emission compared to control. […]; format: functional; conditions: sporozoite, FFLUC_HILL_SLOPE 9.86, FFLUC_R_SQUARED 0.42, HEPG2TOX_HILL_SLOPE 7.8, HEPG2TOX_R_SQUARED 0.241, read-out: LUCIFERASE INFECTION ASSAY - IC50
pIC50: −log10 of the molar value.
RECORDED ENDPOINT: pIC50

Value of pIC50 reported for the compound FC(F)(F)c1cc(Nc2ncnc3sc(-c4ccccc4)cc23)ccc1Cl is < 5.00
